B1: RNA-binding E3 ubiquitin-protein ligase MEX3C, residues 325 to 391; numbered along this chain, Q5U5Q3 (parent)
chain: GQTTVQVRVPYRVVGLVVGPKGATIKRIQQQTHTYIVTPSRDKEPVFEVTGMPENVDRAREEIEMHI

variants of: B1; assay: abundance fitness (aPCA) (normalised: wild type 0, dead -1); higher = more abundant; growth selection in yeast, the domain comes from the species named; conditions: Homo sapiens
// values below are reported abundance fitness
readoutName: abundance fitness

>>> numericvalue("K21I")
-0.53
>>> numericvalue("V37E")
-0.422
>>> numericvalue("S40N")
0.032
>>> numericvalue("F47V")
-0.792
>>> numericvalue("N55V")
-0.8
>>> numericvalue("N55I")
-0.646
>>> numericvalue("T24C")
-0.574
>>> numericvalue("S40P")
0.08
>>> numericvalue("A23M")
-0.027
>>> numericvalue("V37W")
-0.811
